read-out: Alpha-fetoprotein (AFP) gene, AFP (gene 174); assay: LTEA_HepaRG_AFP: Life Technologies and Expression Analysis (LTEA) Assay for Alpha-fetoprotein (AFP) gene using HepaRG (AID 2283472); conditions: mRNA level, 48 h; actives raise or lower the signal
The source made the active and inactive calls. The calls were made as follows: active = hit-call score of the fitted dose curve at least 0.9, where 1 is the maximum; inactive = score below 0.9.
// allowed return values: Yes (active), No (inactive)

Examples with answers:
O=C1C2(Cl)C3(Cl)C4(Cl)C(Cl)(Cl)C5(Cl)C3(Cl)C1(Cl)C5(Cl)C24Cl (stereo unspecified)	Yes
CCOP(=S)(OCC)SCSP(=S)(OCC)OCC	Yes
CCCCCCCCc1ccc(O)cc1	No
CCN1CCC2(CC1)COc1cc3c(cc12)N(C(=O)c1ccc(-c2ccc(-c4nnc(C)o4)cc2C)cc1)CC3	No
C=C(C)C(=O)[O][Sn]([CH2]CCC)([CH2]CCC)[CH2]CCC	Yes

Let's switch to this compound now.
# fetch the recorded call for `C[C@@H]1C[C@@H]([C@H](O)CC2CC(=O)NC(=O)C2)C(=O)[C@@H](C)C1` here
Yes
